Examples of molecules with documented Ki follow.
- study.system: UniProt:P23975
- measurement.description: Binding assay to human norepinephrine transporter (NET), [3H]-Nisoxetin
- condition.description: human NET enriched membranes, 5 nM [3H]-Nisoxetin; read-out: Ki (nM) NET Hum

Given the molecule CNCCC(c1cccs1)N1CC(C)(C)c2ncccc21 (stereo not shown) , what is its reported Ki?
500 to 1000 nM

New cases:
Given the molecule CNCC[C@H](c1ccsc1)N1CCc2nc(C(C)C)ccc21 , what is its reported Ki?
> 1000 nM

What about this molecule? CNCC[C@H](c1cccs1)N1CCc2ncc(F)cc21
> 1000 nM

What about this molecule? CNCC[C@@H](c1ccsc1)N1CCc2nc(C)ccc21
500 to 1000 nM

What about this molecule? CNCCC(c1cccs1)N1CCc2cc(F)ccc21 (stereo not shown)
100 to 500 nM

What about this molecule? CNCC[C@@H](c1cccc(F)c1)N1CCc2ncccc21
500 to 1000 nM

* * *

- study.system: Human norepinephrine transporter (NET) (Homo sapiens)
- measurement.description: Binding assay to human norepinephrine transporter (NET), [3H]-Nisoxetin
- condition.description: human NET enriched membranes, 5 nM [3H]-Nisoxetin; read-out: Ki (nM) NET Hum
Examples of compounds with documented Ki follow.

Given the compound CNCC[C@@H](c1ccsc1)N1CC(C)(C)c2ncccc21 , what is its reported Ki?
100 to 500 nM

What about this compound? CNCC[C@@H](c1ccsc1)N1CCc2ncccc21
100 to 500 nM

What about this compound? CNCC[C@H](c1cccs1)N1CC(C)(C)c2ncc(Cl)cc21
> 1000 nM

What about this compound? CNCCC(c1cccs1)N1CC(C)(C)c2nc(C)ccc21 (centres unmarked)
100 to 500 nM

What about this compound? CNCC[C@@H](c1cccc(F)c1)N1CC(C)(C)c2ncccc21
100 to 500 nM

What about this compound? CNCCC(c1cccs1)N1CC(C)(C)c2ncc(C#N)cc21 (centres unmarked)
> 1000 nM

What about this compound? CNCC[C@H](c1ccc(C)s1)N1CCc2ncccc21
> 1000 nM

What about this compound? CNCC[C@@H](c1cccs1)N1CCc2c(C#N)cccc21 [Example 111]
< 100 nM

New cases:
Given the compound CNCCC(c1cccs1)N1CC(C)(C)c2ncc(Cl)cc21 (centres unmarked) , what is its reported Ki?
> 1000 nM

What about this compound? CNCC[C@H](c1cccs1)N1CC(C)(C)c2nc(C)ccc21
> 1000 nM

What about this compound? CNCC[C@@H](c1cccs1)N1c2ccccc2C[C@H]1C
< 100 nM

What about this compound? CNCC[C@@H](c1ccsc1)N1CCc2ncc(C3CC3)cc21
> 1000 nM

What about this compound? CNCCC(c1cccs1)N1CCc2ccc(C#N)cc21 (centres unmarked)
> 1000 nM

What about this compound? CNCC[C@H](c1cccs1)N1CCc2ncc(C(C)C)cc21
> 1000 nM

What about this compound? CNCC[C@H](c1ccsc1)N1CC(C)(C)c2nc(C)c(F)cc21
> 1000 nM

What about this compound? CNCCC(c1cccs1)N1CCc2ncccc21 (centres unmarked)
500 to 1000 nM

What about this compound? CNCC[C@@H](c1ccsc1)N1CCc2ncc(F)cc21
500 to 1000 nM

* * *

Examples of compounds with documented Ki follow.
- study.system: Human α2δ-1 subunit of Cav2.2 calcium channel (Homo sapiens, UniProt P54289)
- Sequence (P54289 25-1103): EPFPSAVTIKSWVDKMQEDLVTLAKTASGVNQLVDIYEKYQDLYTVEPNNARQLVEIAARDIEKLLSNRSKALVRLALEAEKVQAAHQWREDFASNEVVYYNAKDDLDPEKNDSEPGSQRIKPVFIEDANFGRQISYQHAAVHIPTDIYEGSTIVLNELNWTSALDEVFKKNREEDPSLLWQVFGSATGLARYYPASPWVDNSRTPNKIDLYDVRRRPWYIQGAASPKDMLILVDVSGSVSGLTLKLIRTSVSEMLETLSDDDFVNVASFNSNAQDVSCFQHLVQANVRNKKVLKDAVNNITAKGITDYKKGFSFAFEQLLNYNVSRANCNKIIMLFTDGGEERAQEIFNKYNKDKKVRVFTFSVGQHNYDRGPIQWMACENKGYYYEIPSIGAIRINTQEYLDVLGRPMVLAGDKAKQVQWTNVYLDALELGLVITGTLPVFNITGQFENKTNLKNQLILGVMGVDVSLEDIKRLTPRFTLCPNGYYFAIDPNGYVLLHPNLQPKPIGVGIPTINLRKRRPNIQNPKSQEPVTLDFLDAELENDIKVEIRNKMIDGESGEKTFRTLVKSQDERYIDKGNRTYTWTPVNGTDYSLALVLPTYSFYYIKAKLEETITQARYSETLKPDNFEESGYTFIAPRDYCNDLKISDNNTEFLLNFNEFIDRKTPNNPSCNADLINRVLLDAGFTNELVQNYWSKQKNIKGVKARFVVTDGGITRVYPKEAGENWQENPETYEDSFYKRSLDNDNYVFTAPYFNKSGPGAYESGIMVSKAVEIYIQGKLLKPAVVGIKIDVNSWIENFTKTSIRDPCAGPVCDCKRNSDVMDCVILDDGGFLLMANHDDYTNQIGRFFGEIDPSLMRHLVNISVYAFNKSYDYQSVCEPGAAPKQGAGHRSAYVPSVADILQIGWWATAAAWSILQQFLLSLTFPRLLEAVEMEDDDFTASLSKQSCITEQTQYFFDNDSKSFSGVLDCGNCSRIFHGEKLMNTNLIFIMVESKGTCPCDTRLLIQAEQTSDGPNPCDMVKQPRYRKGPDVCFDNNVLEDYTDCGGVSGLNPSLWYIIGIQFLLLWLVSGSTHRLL
- measurement.description: Binding assay to human α2δ-1 subunit of Cav2.2 calcium channel, [3H]-Gabapentin
- condition.description: human α2δ-1 enriched membranes, 15 nM [3H]-Gabapentin; read-out: Ki (nM) alpha2delta Hum
Counter-ions that a name gives are not always drawn.

Given the compound CNCC[C@H](c1cccs1)N1CC(C)(C)c2ncccc21 [Example 20] , what is its reported Ki?
100 to 500 nM

What about this compound? CNCCC(c1cccs1)N1CCc2nc(C)ccc21 (stereo not drawn) [Example 11]
100 to 500 nM

What about this compound? CNCCC(c1ccsc1)N1CCc2ncc(C)cc21 (stereo not drawn) [Example 14]
100 to 500 nM

What about this compound? CNCCC(c1ccc(F)s1)N1CCc2ncccc21 (stereo not drawn) [Example 6]
500 to 3000 nM

What about this compound? CNCC[C@H](c1ccsc1)N1CC(C)(C)c2nc(C)c(F)cc21 [Example 90]
< 100 nM

What about this compound? CNCCC(c1cccs1)N1CCc2ccccc21 (stereo not drawn) [Example 1]
500 to 3000 nM

What about this compound? CNCC[C@H](c1ccsc1)N1CC(C)(C)c2nc(C(F)(F)F)ccc21 [Example 108]
100 to 500 nM

What about this compound? CNCC[C@H](c1ccsc1)N1CC(C)(C)c2ncccc21 [Example 24]
100 to 500 nM

New cases:
Given the compound CNCCC(c1ccsc1)N1CCc2cnccc21 (stereo not drawn) [Example 74] , what is its reported Ki?
500 to 3000 nM

What about this compound? CNCCC(c1cccs1)N1CCc2cc(F)ccc21 (stereo not drawn) [Example 72]
≥ 3000 nM

What about this compound? CNCC[C@@H](c1ccsc1)N1CCc2ncccc21 [Example 23]
100 to 500 nM

What about this compound? CNCC[C@H](c1nccs1)N1CCc2ncccc21 [Example 54]
≥ 3000 nM

What about this compound? CNCCC(c1cccs1)N1CC(C)(C)c2ncc(C)cc21 (racemic) [Example 81]
< 100 nM

What about this compound? CNCC[C@H](c1cccs1)N1CCc2ncc(F)cc21 [Example 26]
100 to 500 nM

What about this compound? CNCC[C@H](c1cccs1)N1CCc2ncc(OC)cc21 [Example 30]
100 to 500 nM

What about this compound? CNCC[C@H](c1cccc(F)c1)N1CC(C)(C)c2ncccc21 [Example 85]
≥ 3000 nM

What about this compound? CNCC[C@@H](c1ccc(F)s1)N1CCc2ncccc21 [Example 19]
100 to 500 nM

What about this compound? CNCCC(c1ccsc1)N1CCc2ncccc21 (stereo not drawn) [Example 10]
100 to 500 nM

What about this compound? CNCCC(c1cccs1)N1CCc2cc(C#N)ccc21 (stereo not drawn) [Example 96]
500 to 3000 nM

What about this compound? CN(C)CCC(c1cccs1)N1CCc2ncccc21 (stereo not drawn) [Example 15]
≥ 3000 nM

What about this compound? CNCC[C@H](c1cccs1)N1CCc2ncc(C(C)C)cc21 [Example 39]
100 to 500 nM

What about this compound? CNCC[C@@H](c1ccsc1)N1CC(C)(C)c2nc(C(F)(F)F)ccc21 [Example 107]
100 to 500 nM

What about this compound? CNCCC(c1ccsc1)N1CC(C)(C)c2nc(C#N)ccc21 (stereo not drawn) [Example 104, Hydrochloride]
100 to 500 nM

* * *

Examples of compounds with documented Ki follow.
- study.system: UniProtKB P23975
- measurement.description: Binding assay to human norepinephrine transporter (NET), [3H]-Nisoxetin
- condition.description: human NET enriched membranes, 5 nM [3H]-Nisoxetin; read-out: Ki (nM) NET Hum

Recorded Ki, per entry:
Given the compound CNCC[C@@H](c1ccsc1)N1CC(C)(C)c2nc(C)ccc21 [Example 59] , what is its reported Ki?
100 to 500 nM

What about this compound? CN(C)CCC(c1cccs1)N1CCc2ncccc21 (stereo not shown) [Example 15]
> 1000 nM

What about this compound? CNCCC(c1cccs1)N1CCCc2ccccc21 (stereo not shown) [Example 4]
100 to 500 nM

Now consider a different compound.
Given the compound CNCC[C@@H](c1cccs1)N1CCc2ncccc21 [Example 16] , what is its reported Ki?
100 to 500 nM

* * *

- study.system: Human norepinephrine transporter (NET) (Homo sapiens, UniProt P23975)
- Sequence (P23975 whole entry): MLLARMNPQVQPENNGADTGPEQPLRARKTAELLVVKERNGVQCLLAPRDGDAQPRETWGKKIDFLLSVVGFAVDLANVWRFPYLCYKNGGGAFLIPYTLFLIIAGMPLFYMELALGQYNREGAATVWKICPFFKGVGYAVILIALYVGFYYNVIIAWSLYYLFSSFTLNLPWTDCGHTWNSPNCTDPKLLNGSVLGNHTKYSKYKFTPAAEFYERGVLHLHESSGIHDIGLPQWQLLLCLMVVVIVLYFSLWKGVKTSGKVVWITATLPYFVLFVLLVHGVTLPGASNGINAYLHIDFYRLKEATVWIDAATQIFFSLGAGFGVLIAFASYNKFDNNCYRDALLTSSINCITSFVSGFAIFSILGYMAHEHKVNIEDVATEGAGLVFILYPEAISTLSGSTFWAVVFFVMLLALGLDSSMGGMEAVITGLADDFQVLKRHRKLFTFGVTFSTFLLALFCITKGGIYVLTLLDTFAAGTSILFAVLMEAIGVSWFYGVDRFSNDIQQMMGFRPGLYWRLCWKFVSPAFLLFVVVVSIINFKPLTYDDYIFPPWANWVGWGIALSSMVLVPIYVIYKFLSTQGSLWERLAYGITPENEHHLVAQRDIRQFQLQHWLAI
- measurement.description: Binding assay to human norepinephrine transporter (NET), [3H]-Nisoxetin
- condition.description: human NET enriched membranes, 5 nM [3H]-Nisoxetin; read-out: Ki (nM) NET Hum
measured.parameter: Ki

Recorded Ki, per entry:
Request body: readout Ki, system Human norepinephrine transporter (NET) (Homo sapiens, UniProt P23975), query CNCC[C@H](c1cccs1)N1CC(C)(C)c2ncccc21 . Return the value.
> 1000 nM

What about this compound? CNCC[C@H](c1ccc(Cl)s1)N1CCc2ncccc21
> 1000 nM

What about this compound? CNCC[C@@H](c1cccs1)N1CCc2ncc(OC)cc21
500 to 1000 nM

Now consider a different compound.
Request body: readout Ki, system Human norepinephrine transporter (NET) (Homo sapiens, UniProt P23975), query CNCC[C@H](c1cccc(F)c1)N1CCc2ncccc21 . Return the value.
100 to 500 nM

* * *

Examples of compounds with documented Ki follow.
- study.system: Human norepinephrine transporter (NET) (Homo sapiens, UniProt P23975)
- measurement.description: Binding assay to human norepinephrine transporter (NET), [3H]-Nisoxetin
- condition.description: human NET enriched membranes, 5 nM [3H]-Nisoxetin; read-out: Ki (nM) NET Hum

Recorded Ki, per entry:
Given the compound CNCC[C@H](c1ccsc1)N1CC(C)(C)c2nc(C(F)(F)F)ccc21 [Example 108] , what is its reported Ki?
> 1000 nM

What about this compound? CNCCC(c1cccs1)N1CCc2c(F)cccc21 (stereo not drawn)
< 100 nM

What about this compound? CNCCC(c1ccsc1)N1CCc2cnccc21 (stereo not drawn)
> 1000 nM

What about this compound? CNCC[C@@H](c1cccs1)N1CCc2c(C#N)cccc21 [Example 112]
> 1000 nM

What about this compound? CNCC[C@@H](c1ccsc1)N1CCc2nc(C(C)C)ccc21
> 1000 nM

New cases:
Given the compound CNCCC(c1cccs1)N1CC(C)(C)c2ncc(F)cc21 (stereo not drawn) , what is its reported Ki?
> 1000 nM

What about this compound? CNCC[C@H](c1ccsc1)N1CCc2ncc(C)cc21
> 1000 nM

What about this compound? CNCC[C@H](c1sccc1Cl)N1CCc2ncccc21
100 to 500 nM

What about this compound? CNCC[C@H](c1ccsc1)N1CC(C)(C)c2nc(C(F)(F)F)ccc21 (racemic) [Example 79]
> 1000 nM

What about this compound? CNCCC(c1cccs1)N1CCc2cc(C#N)ccc21 (stereo not drawn)
500 to 1000 nM

What about this compound? CNCC[C@H](c1cscc1C)N1CCc2ncccc21
> 1000 nM

What about this compound? CNCCC(c1ccccc1)N1CCc2ncccc21 (stereo not drawn)
500 to 1000 nM

What about this compound? CNCC[C@@H](c1ccc(C)s1)N1CCc2ncccc21
> 1000 nM

What about this compound? CNCC[C@@H](c1cccs1)N1CC(C)(C)c2nc(OC)ccc21
500 to 1000 nM

What about this compound? CNCC[C@@H](c1cccs1)N1c2ccccc2C[C@@H]1C (racemic)
> 1000 nM

What about this compound? CNCC[C@H](c1nccs1)N1CCc2ncccc21
> 1000 nM

What about this compound? CCc1cnc2c(c1)N([C@@H](CCNC)c1cccs1)CC2
500 to 1000 nM

All figures here come from patent US20200207759A1.
